Hello, the source for this data is PubChem BioAssay (NCI), in case you need it.

# Test system: UACC-257 melanoma
# test summary: NCI-60 one-dose screen, 48 h (100 = growth as untreated, 0 = no growth, -100 = all killed)
# assay conditions: 10 µM unless noted
The panel holds about 83,000 compounds, 20% with a hit somewhere; the sample as a whole holds those more often.
Outcome label depends on growth relative to 50%: at/above gives TRUE, below gives FALSE.

See these solved cases before continuing.
[
  {
    "smiles entry": "COc1cc(C(=O)c2c(-c3ccccc3)oc3c(OC)cccc23)cc(OC)c1OC",
    "assigned class": "TRUE"
  },
  {
    "smiles entry": "O=C(/C=C/c1ccc(Oc2ccc(Br)cc2)cc1)c1ccc(Br)cc1",
    "assigned class": "TRUE"
  },
  {
    "smiles entry": "Nc1[nH]c(=S)nc2oc(-c3ccccc3)c(-c3ccccc3)c12",
    "assigned class": "TRUE"
  },
  {
    "smiles entry": "CN(CCCNC(=O)CCOCCOCCOCCNC(=O)Cc1ccc2ccc3cccc4ccc1c2c34)CCCNc1cc(-c2ccc3ccccc3c2)nc2ccccc12",
    "assigned class": "FALSE"
  },
  {
    "smiles entry": "O=C(CCCCCCN1CC(=O)N2[C@H](c3ccc(Cl)cc3)c3[nH]c4ccccc4c3C[C@@H]2C1=O)NO",
    "assigned class": "FALSE"
  },
  {
    "smiles entry": "O=C(NNc1cnccn1)c1nc2cc(F)ccc2n2cccc12",
    "assigned class": "FALSE"
  },
  {
    "smiles entry": "CCCCNc1nnc2n(Cc3ccccc3)c(=O)c3c4c(sc3n12)CCCC4",
    "assigned class": "TRUE"
  },
  {
    "smiles entry": "O=[N+]([O-])c1cc(NS(=O)(=O)c2ccccc2)ccc1NS(=O)(=O)c1ccccc1",
    "assigned class": "TRUE"
  }
]

Decide: is the reported value of growth for `Cc1ccc(C=C2C(=O)NC(=O)NC2=O)cc1` equal to or greater than 50%?
TRUE

Decide: is the reported value of growth for `CCc1ccc(CCC(=O)Nc2ncc(Cc3cc(Cl)ccc3Cl)s2)o1` equal to or greater than 50%?
TRUE
